Where these numbers come from: patent US6720346B2

Molecular target: human CDK4/cyclin D3 (Homo sapiens)
Construct: made in house; host or cells: insect cells co-infected with baculovirus vectors
Sequence (P11802 whole entry): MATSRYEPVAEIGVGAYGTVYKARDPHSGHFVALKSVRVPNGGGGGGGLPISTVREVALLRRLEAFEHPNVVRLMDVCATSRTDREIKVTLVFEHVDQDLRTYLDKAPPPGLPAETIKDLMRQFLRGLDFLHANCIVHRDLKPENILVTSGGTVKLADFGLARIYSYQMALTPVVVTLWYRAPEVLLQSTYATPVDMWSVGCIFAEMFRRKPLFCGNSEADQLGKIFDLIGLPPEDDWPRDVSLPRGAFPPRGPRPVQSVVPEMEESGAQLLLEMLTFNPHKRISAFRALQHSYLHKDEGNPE
Sequence (P30281 1-264 partner limits assumed): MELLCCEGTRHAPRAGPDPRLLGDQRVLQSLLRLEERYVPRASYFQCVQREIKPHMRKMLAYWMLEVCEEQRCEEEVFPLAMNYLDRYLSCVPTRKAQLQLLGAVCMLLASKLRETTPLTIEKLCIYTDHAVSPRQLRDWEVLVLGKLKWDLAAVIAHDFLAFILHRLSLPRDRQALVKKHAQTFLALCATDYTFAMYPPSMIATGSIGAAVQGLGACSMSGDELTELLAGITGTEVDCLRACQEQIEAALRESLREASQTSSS
Test: Inhibition of CDK4/cyclin D retinoblastoma kinase activity (Ki; % inhibition)
Format: biochemical
Settings: at 0.03 μM
If the reported CDK4 % Inhibition at 0.03 μM equals or exceeds 10%, assign true. If not, assign false.

Nc1nc(Nc2ccc(C(=O)NCCc3ccccc3)cc2)sc1C(=O)c1c(F)cccc1F :: false
Nc1nc(Nc2ccc(C(=O)NCc3ccc4c(c3)OCO4)cc2)sc1C(=O)c1c(F)cccc1F :: true
CCN1CCCC1CNC(=O)c1ccc(Nc2nc(N)c(C(=O)c3c(F)cccc3F)s2)cc1 (stereo not shown) :: true
Nc1nc(Nc2ccc(C(=O)Nc3ccc(O)cc3)cc2)sc1C(=O)c1c(F)cccc1F :: true
NC(=O)c1ccc(NC(=O)c2ccc(Nc3nc(N)c(C(=O)c4c(F)cccc4F)s3)cc2)cc1 :: false
Nc1nc(Nc2ccc(C(=O)N3CCCC(CO)C3)cc2)sc1C(=O)c1c(F)cccc1F (stereo not shown) :: false
C=CCN(C)C(=O)c1ccc(Nc2nc(N)c(C(=O)c3c(F)cccc3F)s2)cc1 :: false
Nc1nc(Nc2ccc(C(=O)N3CCC(O)C3)cc2)sc1C(=O)c1c(F)cccc1F (stereo not shown) :: true
Nc1nc(Nc2ccc(C(=O)N[C@@H]3CCc4ccccc43)cc2)sc1C(=O)c1c(F)cccc1F :: true
Nc1nc(Nc2ccc(C(=O)Nc3ccc4c(c3)S(=O)(=O)C=C4)cc2)sc1C(=O)c1c(F)cccc1F :: true
CCOC(=O)Cc1ccc(NC(=O)c2ccc(Nc3nc(N)c(C(=O)c4c(F)cccc4F)s3)cc2)cc1 :: true
Cc1nccc(-c2cccc(NC(=O)c3ccc(Nc4nc(N)c(C(=O)c5c(F)cccc5F)s4)cc3)c2)n1 :: true
CN(C)CCCN(C)C(=O)c1ccc(Nc2nc(N)c(C(=O)c3c(F)cccc3F)s2)cc1 :: true
Nc1nc(Nc2ccc(C(=O)NCc3cccnc3)cc2)sc1C(=O)c1c(F)cccc1F :: true
Nc1nc(Nc2ccc(C(=O)NC3CCCC3)cc2)sc1C(=O)c1c(F)cccc1F :: true
Nc1nc(Nc2ccc(C(=O)NCCCN3CCOCC3)cc2)sc1C(=O)c1c(F)cccc1F :: true
CC(=O)N1CCN(C(=O)c2ccc(Nc3nc(N)c(C(=O)c4c(F)cccc4F)s3)cc2)CC1 :: true
CCOC(=O)CC(C)NC(=O)c1ccc(Nc2nc(N)c(C(=O)c3c(F)cccc3F)s2)cc1 (stereo not shown) :: true
COc1ccccc1NC(=O)c1ccc(Nc2nc(N)c(C(=O)c3c(F)cccc3F)s2)cc1 :: false
Nc1ccc(CCNC(=O)c2ccc(Nc3nc(N)c(C(=O)c4c(F)cccc4F)s3)cc2)cc1 :: false
CC(CCc1ccccc1)NC(=O)c1ccc(Nc2nc(N)c(C(=O)c3c(F)cccc3F)s2)cc1 (stereo not shown) :: true
CN(CC(O)CO)C(=O)c1ccc(Nc2nc(N)c(C(=O)c3c(F)cccc3F)s2)cc1 (stereo not shown) :: true
CN(C)C(=O)CN(C)C(=O)c1ccc(Nc2nc(N)c(C(=O)c3c(F)cccc3F)s2)cc1 :: false
COc1ccc(NC(=O)c2ccc(Nc3nc(N)c(C(=O)c4c(F)cccc4F)s3)cc2)c(OC)c1 :: true
CN(CCc1ccncc1)C(=O)c1ccc(Nc2nc(N)c(C(=O)c3c(F)cccc3F)s2)cc1 :: true
CC1CN(C(=O)c2ccc(Nc3nc(N)c(C(=O)c4c(F)cccc4F)s3)cc2)CC(C)O1 (stereo not shown) :: false
Nc1nc(Nc2ccc(C(=O)NCC3CCCO3)cc2)sc1C(=O)c1c(F)cccc1F (stereo not shown) :: true
CC(O)CNC(=O)c1ccc(Nc2nc(N)c(C(=O)c3c(F)cccc3F)s2)cc1 (stereo not shown) :: true
